Catalogue of IC50 readings, one per entry.
target_desc: UniProt:P03372
Sequence (P03372 whole entry): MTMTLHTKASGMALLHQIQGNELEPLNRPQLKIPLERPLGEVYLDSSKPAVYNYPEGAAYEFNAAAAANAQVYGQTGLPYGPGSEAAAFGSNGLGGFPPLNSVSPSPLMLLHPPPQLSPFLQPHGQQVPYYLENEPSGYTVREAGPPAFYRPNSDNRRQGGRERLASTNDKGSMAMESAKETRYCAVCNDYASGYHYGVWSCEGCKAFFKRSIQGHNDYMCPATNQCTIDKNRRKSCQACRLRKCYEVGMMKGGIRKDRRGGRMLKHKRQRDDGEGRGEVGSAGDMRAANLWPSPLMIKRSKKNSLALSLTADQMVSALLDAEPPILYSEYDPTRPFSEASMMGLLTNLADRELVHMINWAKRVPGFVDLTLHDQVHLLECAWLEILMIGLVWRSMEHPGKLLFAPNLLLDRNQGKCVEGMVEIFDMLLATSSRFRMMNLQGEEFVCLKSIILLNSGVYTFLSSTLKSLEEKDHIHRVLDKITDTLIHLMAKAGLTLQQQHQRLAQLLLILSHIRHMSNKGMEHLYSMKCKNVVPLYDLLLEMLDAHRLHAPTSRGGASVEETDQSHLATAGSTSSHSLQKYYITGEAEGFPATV

Worked set:
Note to self: IC50 of `COc1ccc(F)cc1-c1ccc2c(c1)C(CSCCc1ccccc1)=CC(C)(C)N2` with UniProt:P03372 was > 2000 nM

Note to self: IC50 of `C=CCSCC1=CC(C)(C)Nc2ccc(-c3cc(F)ccc3OC)cc21` with UniProt:P03372 was > 2000 nM

From here, focus on the item given below.
Note to self: IC50 of Br.C=CCOC(C)C1=CC(C)(C)Nc2ccc(-c3cc(F)ccc3OC)cc21 (single isomer, unassigned; (+)) with UniProt:P03372 was > 2000 nM

* * *

Test system: Fibroblast
experimental_protocol: Inhibition of IL1-induced IL6 production in foreskin fibroblasts after 24 hrs
Format: functional, cell-based, Homo sapiens
test_parameters: fibroblast
endpoint_label: IC50 (nM)
Write the answer as a number in nM, unit excluded.

Notebook: Br.C=CCOC(C)C1=CC(C)(C)Nc2ccc(-c3cc(F)ccc3OC)cc21 (single isomer, unassigned; (+)) , IC50 read as 170

* * *

Catalogue of IC50 readings, one per entry.
target_desc: Glucocorticoid receptor (Homo sapiens)
Sequence (P04150 whole entry): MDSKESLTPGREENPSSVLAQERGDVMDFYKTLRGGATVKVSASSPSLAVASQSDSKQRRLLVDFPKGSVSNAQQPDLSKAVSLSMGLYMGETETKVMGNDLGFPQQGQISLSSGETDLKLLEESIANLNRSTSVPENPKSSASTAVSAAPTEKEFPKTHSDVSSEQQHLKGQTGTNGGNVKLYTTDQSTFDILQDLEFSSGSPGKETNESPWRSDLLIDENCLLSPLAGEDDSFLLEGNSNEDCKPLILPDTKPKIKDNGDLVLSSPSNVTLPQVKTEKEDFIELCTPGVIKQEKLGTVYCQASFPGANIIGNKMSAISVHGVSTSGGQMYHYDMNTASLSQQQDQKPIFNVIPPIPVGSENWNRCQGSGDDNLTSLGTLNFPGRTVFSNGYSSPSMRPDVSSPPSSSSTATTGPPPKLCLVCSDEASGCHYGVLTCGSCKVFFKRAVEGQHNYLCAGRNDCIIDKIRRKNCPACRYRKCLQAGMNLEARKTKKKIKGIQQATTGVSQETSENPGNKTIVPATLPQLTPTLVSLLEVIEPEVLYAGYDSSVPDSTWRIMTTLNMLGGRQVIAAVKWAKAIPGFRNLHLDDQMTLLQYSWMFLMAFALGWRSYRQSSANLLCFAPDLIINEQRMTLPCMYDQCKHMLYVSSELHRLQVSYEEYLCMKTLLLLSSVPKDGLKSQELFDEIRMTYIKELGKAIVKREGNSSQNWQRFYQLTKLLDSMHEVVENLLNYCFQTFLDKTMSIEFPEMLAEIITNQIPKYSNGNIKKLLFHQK
Write the answer as a number in nM, unit excluded.

Worked set:
Note to self: IC50 of COc1ccccc1-c1ccc2c(c1)C(C(C)OC/C=C/c1ccccc1)=CC(C)(C)N2 (stereo unspecified) with Glucocorticoid receptor (Homo sapiens) was 980

Note to self: IC50 of Br.C=CCOC(C)C1=CC(C)(C)Nc2ccc(-c3cc(F)ccc3OC)cc21 (single isomer, unassigned; (+)) with Glucocorticoid receptor (Homo sapiens) was 40

Note to self: IC50 of COc1ccccc1-c1ccc2c(c1)C(C(C)OCCCc1ccccc1)=CC(C)(C)N2 (stereo unspecified) with Glucocorticoid receptor (Homo sapiens) was 260

Note to self: IC50 of COc1ccccc1-c1ccc2c(c1)C(C(C)OCCc1ccccc1Cl)=CC(C)(C)N2 (stereo unspecified) with Glucocorticoid receptor (Homo sapiens) was 290

Note to self: IC50 of COc1ccccc1-c1ccc2c(c1)C(C(C)OCCC1CCCCC1)=CC(C)(C)N2 (stereo unspecified) with Glucocorticoid receptor (Homo sapiens) was 400

From here, focus on the item given below.
Note to self: IC50 of C/C=C/COC(C)C1=CC(C)(C)Nc2ccc(-c3ccccc3OC)cc21 (stereo unspecified) with Glucocorticoid receptor (Homo sapiens) was 210

* * *

// endpoint pIC50 / system Glucocorticoid receptor (Homo sapiens, UniProt P04150)
Please express pIC50 as -log10 of the molar concentration.

Worked set:
Note to self: pIC50 of COc1ccccc1-c1ccc2c(c1)C(C(C)OCCc1cccc(Cl)c1)=CC(C)(C)N2 (centres undefined) with Glucocorticoid receptor (Homo sapiens, UniProt P04150) was 6.56

Note to self: pIC50 of C=CCOC(C)C1=CC(C)(C)Nc2ccc(-c3cc(F)ccc3OC)cc21.Cl (single isomer, unassigned; (-)) with Glucocorticoid receptor (Homo sapiens, UniProt P04150) was 6.96

Note to self: pIC50 of COc1ccccc1-c1ccc2c(c1)C(C(C)OCCc1ccc(Cl)cc1)=CC(C)(C)N2 (centres undefined) with Glucocorticoid receptor (Homo sapiens, UniProt P04150) was 6.73

Note to self: pIC50 of C=CCOC(C)C1=CC(C)(C)Nc2ccc(-c3ccccc3OC)cc21 (centres undefined) with Glucocorticoid receptor (Homo sapiens, UniProt P04150) was 6.94

Note to self: pIC50 of C=CCOC(CC)C1=CC(C)(C)Nc2ccc(-c3ccccc3OC)cc21 (centres undefined) with Glucocorticoid receptor (Homo sapiens, UniProt P04150) was 6.45

---
Note to self: pIC50 of COc1ccccc1-c1ccc2c(c1)C(C(C)OCC=C(C)C)=CC(C)(C)N2 (centres undefined) with Glucocorticoid receptor (Homo sapiens, UniProt P04150) was 6.40

Note to self: pIC50 of C=CCOC(C)C1=CC(C)(C)Nc2ccc(-c3cc(F)ccc3OC)cc21 (racemic) with Glucocorticoid receptor (Homo sapiens, UniProt P04150) was 7.47

* * *

target_desc: Progesterone receptor (Homo sapiens)
Sequence (P06401 whole entry): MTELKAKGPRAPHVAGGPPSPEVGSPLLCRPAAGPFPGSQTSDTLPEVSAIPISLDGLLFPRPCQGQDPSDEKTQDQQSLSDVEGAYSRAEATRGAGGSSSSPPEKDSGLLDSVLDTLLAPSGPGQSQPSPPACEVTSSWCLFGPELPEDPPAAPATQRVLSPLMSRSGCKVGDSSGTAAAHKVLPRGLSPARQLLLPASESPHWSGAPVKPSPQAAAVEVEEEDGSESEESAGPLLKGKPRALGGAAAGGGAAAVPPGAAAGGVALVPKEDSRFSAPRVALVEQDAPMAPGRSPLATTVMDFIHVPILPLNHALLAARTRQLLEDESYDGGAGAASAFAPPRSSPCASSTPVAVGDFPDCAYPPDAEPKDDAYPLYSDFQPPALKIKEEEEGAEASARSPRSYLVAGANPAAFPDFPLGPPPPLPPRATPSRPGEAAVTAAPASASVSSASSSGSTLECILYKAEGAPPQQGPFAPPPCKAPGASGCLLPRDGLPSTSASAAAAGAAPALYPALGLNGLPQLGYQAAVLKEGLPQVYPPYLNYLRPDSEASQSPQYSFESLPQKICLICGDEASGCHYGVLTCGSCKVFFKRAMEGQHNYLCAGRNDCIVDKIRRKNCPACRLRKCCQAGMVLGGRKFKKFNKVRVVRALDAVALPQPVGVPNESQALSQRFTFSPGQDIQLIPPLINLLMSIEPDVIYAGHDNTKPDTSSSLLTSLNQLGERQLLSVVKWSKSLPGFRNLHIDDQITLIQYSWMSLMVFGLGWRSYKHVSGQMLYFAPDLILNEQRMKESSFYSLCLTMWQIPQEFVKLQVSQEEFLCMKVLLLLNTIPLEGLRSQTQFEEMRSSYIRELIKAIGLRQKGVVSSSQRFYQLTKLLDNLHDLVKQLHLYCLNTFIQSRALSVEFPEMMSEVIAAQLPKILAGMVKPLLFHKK
Catalogue of IC50 readings, one per entry.
Write the answer as a number in nM, unit excluded.

Note to self: IC50 of C/C=C/COC(C)C1=CC(C)(C)Nc2ccc(-c3ccccc3OC)cc21 (stereo not given) with Progesterone receptor (Homo sapiens) was 1300

---
Note to self: IC50 of C=CCOC(C)C1=CC(C)(C)Nc2ccc(-c3ccccc3OC)cc21 (stereo not given) with Progesterone receptor (Homo sapiens) was 480

Note to self: IC50 of C=CCOC(C)C1=CC(C)(C)Nc2ccc(-c3cc(F)ccc3OC)cc21 (racemic) with Progesterone receptor (Homo sapiens) was 451

Note to self: IC50 of C=CCOC(C1=CC(C)(C)Nc2ccc(-c3ccccc3OC)cc21)C(C)C (stereo not given) with Progesterone receptor (Homo sapiens) was 950

* * *

Tested on: Fibroblast
experimental_protocol: Inhibition of IL1-induced IL6 production in foreskin fibroblasts after 24 hrs
Format: functional, cell-based, Homo sapiens
test_parameters: Homo sapiens, Fibroblast, 24 h
endpoint_label: pIC50
Please express pIC50 as -log10 of the molar concentration.

Notebook: C=CCOC(C)C1=CC(C)(C)Nc2ccc(-c3cc(F)ccc3OC)cc21.Cl (single isomer, unassigned; (-)) , pIC50 read as 6.59

* * *

target_desc: Progesterone receptor (Homo sapiens)
endpoint_label: pIC50
Please express pIC50 as -log10 of the molar concentration.

Worked set:
Note to self: pIC50 of COc1ccccc1-c1ccc2c(c1)C(C(C)OCC=C(C)C)=CC(C)(C)N2 (stereo not given) with Progesterone receptor (Homo sapiens) was 6.01

Note to self: pIC50 of Br.C=CCOC(C)C1=CC(C)(C)Nc2ccc(-c3cc(F)ccc3OC)cc21 (single isomer, unassigned; (+)) with Progesterone receptor (Homo sapiens) was 6.77

From here, focus on the item given below.
Note to self: pIC50 of C=CCOC(C)C1=CC(C)(C)Nc2ccc(-c3cc(F)ccc3OC)cc21.Cl (single isomer, unassigned; (-)) with Progesterone receptor (Homo sapiens) was 6.21
